Below is a list of entries, each paired with its recorded cell viability value.
test system: OCI-AML2; experiment: cell viability relative to vehicle control; higher = less cytotoxic; settings: 10 µM; SRSF2 genotype: wt/wt;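 note: after 48 h exposure read by CellTiter-Glo luminescence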
Counter-ions that a name gives are not always drawn.

# Compound, Units symbol, cell viability
records = [
    ("COc1ccc(C(=O)CC(=O)c2ccc(C(C)(C)C)cc2)cc1 [Avobenzone (Parsol 1789)]", "%", 76.8),
    ("CC[C@]1(O)C[C@H]2CN(CCc3c([nH]c4ccccc34)[C@@](C(=O)OC)(c3cc4c(cc3OC)N(C=O)[C@H]3[C@@](O)(C(=O)OC)[C@H](OC(C)=O)[C@]5(CC)C=CCN6CC[C@]43[C@@H]65)C2)C1 [Vincristine Sulfate]", "%", 9.32),
    ("COC(=O)C1=COC(OC2OC(CO)C(O)C(O)C2O)C2C(CO)=CC(O)C12 (configuration not stated)", "%", 98.7),
    ("Cc1ccc(C(=O)c2cc(O)c(O)c([N+](=O)[O-])c2)cc1 [Tolcapone]", "%", 97.3),
    ("COc1cc([C@@H]2c3cc4c(cc3[C@@H](O[C@@H]3O[C@@H]5CO[C@@H](C)O[C@H]5[C@H](O)[C@H]3O)[C@H]3COC(=O)[C@H]23)OCO4)cc(OC)c1O [Etoposide (VP-16)]", "%", 14.8),
    ("COc1ccc(CCNCc2ccc(OCc3ccc(Cl)nc3)c(OC)c2)cc1OC", "%", 83.5),
    ("O=C(O)[C@H]1CSC(c2nc3ccc(O)cc3s2)=N1 [D-Luciferin]", "%", 87.9),
]
